METHOD_DESCRIPTION: folding stability dG unfold (combined trypsin and chymotrypsin); higher = more stable
Class (required): determined from folding stability dG unfold; valid ranges are lower range = under 0.9 kcal/mol, middle range = from 0.9 kcal/mol up to 2 kcal/mol, upper range = 2 kcal/mol and over

Worked examples, 3 sequences total:
SAKGTLELTFPTTKVTVEVEKVDPVNNKVYARAVFPNGFVVDAVFDPKTGKVYVEVKEVKPTKDGGYSLSAG [r14_466_TrMRF]    middle range
SAGGSAMPPGEPIGSFSFPFNNGGNLMISAYPGGEIKISWWGPDGRPHEHEFPVKVKPPPPEDEGKSAGGSA [r15_478_TrROS]    middle range
SLSPALEGPEALAALAAADPVPPLPVLTVKNSTGDPEKALEEVLKEHPELKPELIVEVEVGEGTLTITVLSA [r9_723_JUSTAS]    lower range

Assign a category based on measured folding stability dG unfold for SKMKVIKTFENKETGEKIVIVKDEKTKKYYIFIYNKDGELVEKIEVEPGETITLPNGKTITIKEGDVIEFSA [r9_340_TrROS_Hall] and give only the class name.
upper range

Assign a category based on measured folding stability dG unfold for SAGGMRLRIVVKSEEEARELAEALAKKLKEEFPGLKIEVKVVKVEYNEETDLIVVEVEIKVELEDEEPSAGG [r13_585_TrROS_Hall] and give only the class name.
upper range

Assign a category based on measured folding stability dG unfold for SAGGSAGGMTVTTTSSFDPTSPTANTLTTTYVSPEELKRPEIQALPDLPGKTLEFPTTTPVPPPSAGGSAGG [r6_768_JUSTAS] and give only the class name.
lower range

Assign a category based on measured folding stability dG unfold for SAKPVAEGPIRIPNGFEIEITQIKPDKENGEIVIPIEIEMWRPERDPEDPNQPKWEPQEMNIAFTIPLDSAG [r14_888_TrROS] and give only the class name.
lower range

Assign a category based on measured folding stability dG unfold for SAGGSAGGSAGEIEVTVTFTGDDGYVVEVKYTFEVPEPNNPIIKKVEVKVKKLKPNEPASSAGGSAGGSAGG [r11_517_TrMRF] and give only the class name.
upper range

Assign a category based on measured folding stability dG unfold for SAGGSAGGKIKLDGKEIVIVMSKEEKEKIAKELKEKFPNVKIKVVEGMSEEEAAKKADLVIVFDSAGGSAGG [r6_679_TrROS_Hall] and give only the class name.
lower range

----------
Kindly supply the reported folding stability dG unfold values for the records listed here.
METHOD_DESCRIPTION: folding stability dG unfold from chymotrypsin proteolysis; higher = more stable
Units required after the number.

Record excerpt, results attached:
SAGGSMTVVIVKLRPPDSPEVLYLPFRGRLPNGDWVPISLEELLEALEALPDLEVEEIIVAPPEEISAGGSA [r2_192_TrMRF]    1.74 kcal/mol
SAGGSAGGSAGGGLGYRTLTGRVEFELNITYLTEDGSPATLNLRFELELRFVVPVPPDYPSAGGSAGGSAGG [r7_926_TrMRF]    5.54 kcal/mol
SAGGSAGGSAGGWIMVPIEIKVDLKWGPNGQHEIETVPILIIIRIPPPPVPEEQAEKNNGSAGGSAGGSAGG [r11_318_TrROS]    2.68 kcal/mol

We next turn to a different sequence, shown below.
Look up folding stability dG unfold for this sequence: SAGGSAGGGMPISISITVTLSDGTVLEFTVTVPENAPDPASVAAALAAEIKAAHPDVAVTFTPASAGGSAGG [r6_132_JUSTAS]
1.72 kcal/mol

----------
METHOD_DESCRIPTION: folding stability dG unfold from chymotrypsin proteolysis; higher = more stable
RECORDED_METRIC: folding stability dG unfold (kJ/mol)
Answers are plain numbers, in kJ/mol.

SAGGSAGGSAGGSPKRVTMYFIIPFYILIPKEDADGNNEWVIIPITIIIKIEIELPPGDSAGGSAGGSAGGS [r4_326_TrROS]    23
SAGGSAGGSAVEFTDPNGAEVLEIKPLPDGTTRVLTKLPGGEIPIVTYDPNTGKITTTLLPASAGGSAGGSA [r18_483_JUSTAS]    0.566

I have 4 sequences here; please give me folding stability dG unfold for each one.
1. SAGGSAGGMTTTEISTKKLPDGTWATTVTTTTITATNGVPVTTSTPTTIINPGDPSVAIAAALSSAGGSAGG [r6_129_JUSTAS]
2. SAGGMTITVPVDEEEAEEFIREATGELTALAEKYPDVPIEIEFPLKSGRVIRLRVYPKSKKVEIEVYDSAGG [r13_216_TrMRF]
3. SAGGKKVKIKVTIVIKVEPGESVEEIAKKLAEELGLKVEVKVEVVKRKDGSLYVVIEVEIELPEELKPSAGG [r13_590_TrROS_Hall]
4. SAGGKKKTAEELAEELKKKLEELGFKVVKIEKLPDGTVLITFEDGYVIKFDVKTGKITIMPKEELEKLSAGG [r13_717_TrROS_Hall]

-4.2
10.7
13.3
9.02

I have 2 sequences here; please give me folding stability dG unfold for each one.
1. SAGGSKIPLDNIKVITIMYNPKEGMYWISIRFPNNGKEVVFPYEDAPKILEKFPEIKEIEVYPFPPSAGGSA [r2_159_TrROS]
2. SAGGKKIVLFVGPPELVEELKKAYPDLPFVPIPVEVLENPEPAAEIIKELKEKGYEVVVYNFPDLKESAGGS [r8_376_TrMRF]

11.6
10.7

----------
Kindly supply the reported folding stability dG unfold values for the records listed here.
METHOD_DESCRIPTION: folding stability dG unfold from chymotrypsin proteolysis; higher = more stable
Numbers only, in kcal/mol.

Record excerpt, results attached:
SAGGSAGGSAGGMIVTLPKTGEVLLVPEEEIEAFLAALPESFPKEDVEVYEYSPEEEPLSAGGSAGGSAGGS [r10_13_JUSTAS]    0.0515
SAGGSKVRIEVEELPDGTVKVTAEVEVDGVLYKIEAEFRINEDGEIVEMKVKIEARPLPPPPPPEESAGGSA [r2_474_TrROS_Hall]    4.17
SAGGSAGGSAGGKELEIVLYDKETNVLVTAKVRMENGKLTITEVKVEKVKPPKLPPGVKPSAGGSAGGSAGG [r7_276_TrROS_Hall]    2.44
SAGGSVVTIVEVVPEDKKIVIKAPGNPITIPLENIKEIKLIPEKGYLEITINNTTIKVPLNNPNSISAGGSA [r2_48_JUSTAS]    1.09
SAIKIEDDPNGYQQIEIPNPENGRKIVITMMYSPDGQFQMSLQRMDPNGKKKTITAPMPVEEAIDELKDSAG [r14_179_TrROS]    0.698
SAGGSAGGWIIRIHFPNGHEHTFKIKSPEEAKDRIMDHHGMPPDKIPPETIKDVEIIPPDAMKESAGGSAGG [r6_588_TrROS]    0.604

I have 6 sequences here; please give me folding stability dG unfold for each one.
1. SAGRRKVEIPIPFDDPGQAMSADELADELRELGLKPGHEPKVEPHPDGYMRVKFEVPGPEVTIHIPMWDSAG [r5_144_TrROS]
2. SAGGSAGGSFKVPGGYKVVSVEEDPENKTVEITFADGSKLTIDIEDPNVFKPVKVEAPEGFDVSAGGSAGGS [r12_149_TrMRF]
3. SAGGSGKEFEVEKAVFIPLPDDRKLIIVKTKTSIQIVEYNGEEWKLVATYPYKDVPKNPRELLKKKSAGGSA [r2_133_TrMRF]
4. SAGGMKIEIELEDGYLRVKIYDKDGKLIEEIEIKIEKVEPPPEVEVELSPEELAKKLGVEIEIKEKESAGGS [r16_778_TrROS_Hall]
5. SAGGSAGGSAGMEYHLVVVRPPNGEELVLLTDDDPELARRAARELFPGAEVRVEPVVLPESAGGSAGGSAGG [r11_850_TrMRF]
6. SAGGSAGGSAAPDLVTETETRTHPETGLVITRERVTLPSTGTTEERTVVTDPETGVTTTEKSSAGGSAGGSA [r18_383_JUSTAS]

0.747
2.04
1.13
2.38
0.0832
0.294

----------
Kindly supply the reported folding stability dG unfold values for the records listed here.
METHOD_DESCRIPTION: folding stability dG unfold from trypsin proteolysis; higher = more stable
One number for each entry, in kcal/mol.

SAGGMKPGESSTVPPVVERTTSPDSLGNPRYTVTRVTEITVTYFPDSINVTVTTETTVVSTATPGLLSAGGS [r8_70_JUSTAS]    2.2
SAGGSAGGSAGGWNYIIFTIRYEFEYKDPNGKTMKHEVEITIIIPIPPIKRDEDGKYKLSAGGSAGGSAGGS [r10_168_TrROS]    2.31

We next turn to a different sequence, shown below.
Look up folding stability dG unfold for this sequence: SAGGSAMIEIEINGKKYKIEIVKVEEKDGKVKVKIKIKDKETGKEIEIEIEMPKEELEKLLKEILSSAGGSA [r15_944_TrROS_Hall]
2.79
